Values from ChEMBL document CHEMBL1145887

biological target: Peroxisome proliferator-activated receptor delta (Homo sapiens, UniProt Q03181); experiment: In vitro transactivation of human Peroxisome proliferator activated receptor delta (hPPARdelta)
Sequence (Q03181 whole entry): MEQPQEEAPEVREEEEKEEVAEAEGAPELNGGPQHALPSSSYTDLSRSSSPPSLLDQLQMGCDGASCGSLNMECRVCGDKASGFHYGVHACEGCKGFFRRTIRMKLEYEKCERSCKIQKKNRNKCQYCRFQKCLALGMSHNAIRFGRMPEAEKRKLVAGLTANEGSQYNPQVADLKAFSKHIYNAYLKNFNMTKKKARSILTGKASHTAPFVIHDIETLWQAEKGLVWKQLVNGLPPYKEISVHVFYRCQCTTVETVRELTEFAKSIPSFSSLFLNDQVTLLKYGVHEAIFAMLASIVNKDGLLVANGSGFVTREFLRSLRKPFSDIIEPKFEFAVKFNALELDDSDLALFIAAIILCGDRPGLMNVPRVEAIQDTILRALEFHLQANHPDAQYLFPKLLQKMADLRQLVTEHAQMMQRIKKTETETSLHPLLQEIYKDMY
pEC50: −log10 of the molar value.
reportedProperty: pEC50

CCO[C@@H](Cc1ccc(OC/C=C(\C)c2ccc(-c3ccccc3)cc2)cc1)C(=O)O: 5.02
CCO[C@@H](Cc1ccc(OC/C=C/C#Cc2ccccc2)cc1)C(=O)O: 5.16
CCCCC[C@H](O)/C=C/[C@@H]1[C@H]2C/C(=C\CCCC(=O)O)C[C@H]2C[C@H]1O: 5.73
CCO[C@@H](Cc1ccc(OC/C=C(\C)c2ccc(-c3ccc(/C(C)=C/COc4ccc(C[C@H](OCC)C(=O)O)cc4)cc3)cc2)cc1)C(=O)O: 5.68

A = CCO[C@@H](Cc1ccc(OC/C=C/C#Cc2cccc(C#C/C=C/COc3ccc(C[C@H](OCC)C(=O)O)cc3)c2)cc1)C(=O)O
B = CCO[C@@H](Cc1ccc(OC/C=C/C#Cc2ccc(C#C/C=C/COc3ccc(C[C@H](OCC)C(=O)O)cc3)cc2)cc1)C(=O)O
Q: Which has the smaller recorded pEC50, A or B ? Answer format: the label of the selected item.
A: A
(A: 4.98, B: 5.66)
